B1: ZNF263 (parent)
chain: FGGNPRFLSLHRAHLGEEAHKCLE

- Variants of: B1
- assay-protocol: protein stability index of a GFP-peptide fusion (GPS, HEK-293T) (PSI 1-6); higher = more stable;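 further: lentivirally expressed fusions sorted by FACS into six bins by GFP to DsRed ratio, PSI derived from sequencing read proportions per bin multiplied by bin number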
- test-conditions: c terminus: a fixed tail appended
quantity-measured: protein stability index
Answers are plain numbers.

Examples with their reported protein stability index follow.
[[record]]
mutant_designation = "G2P"
observed_result = 2.13

[[record]]
mutant_designation = "E17M"
observed_result = 2.82

[[record]]
mutant_designation = "N4L"
observed_result = 2.32

[[record]]
mutant_designation = "E24P"
observed_result = 1.63

[[record]]
mutant_designation = "L15C"
observed_result = 3.76

[[record]]
mutant_designation = "G16F"
observed_result = 1.9

[[record]]
mutant_designation = "H20Y"
observed_result = 2.18

[[record]]
mutant_designation = "L23F"
observed_result = 1.8


Look at each variant and report its protein stability index.
1. G2N
2. H14V
3. G3F
4. R6K
5. L23H
6. R12E

Outgoing:
2.22
1.96
2.69
2.77
1.97
1.76

Look at each variant and report its protein stability index.
1. E18R
2. H20D
3. C22M
4. P5M
5. E17I
6. E17W

Outgoing:
[1.62, 2.28, 1.74, 1.96, 1.19, 2.12]

The origin of these recorded values is the supplement of paper PMC10567573.
